# System: PvdQ acylase [Pseudomonas aeruginosa LESB58]
# Test details: P. aeruginosa PvdQ acylase inhibitors, primary screen, biochemical, fluorescence, plate reader and imaging, single point (AID 488965);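 also: 0% = vehicle neutral wells and 100% = reference inhibitor wells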
# Run conditions: purified PvdQ acylase, at 10 µM, hits give high values
Screen size: about 340,000 compounds; about 210 (0.062%) were called active. This excerpt belongs to a sample that is enriched for actives.
For each entry below, report its inhibition value.
Express the result in % but write the number alone.

Item CC1CCN(c2ccc([N+](=O)[O-])cc2C(N)=O)CC1 : provide inhibition
-4.82

Give the reported inhibition for this molecule. CCC(C)(C)NC(=O)c1cc([N+](=O)[O-])ccc1N1CCCCC1
38.9

Specify reported inhibition for the molecule shown: Cc1ccc(C(=O)Nc2nnc(C3=COCCO3)o2)cc1C
-6.48

Could you please provide reported inhibition for CCOC(=O)C1(Cc2ccc(O)cc2)NC(c2ccccc2F)C2C(=O)N(C)C(=O)C21 (stereo not given) ? Thanks!
-8.27

Input CCCCNC(=O)N1CCN(S(C)(=O)=O)CC1 , output reported inhibition.
-13.6
